METHOD: in vitro
CONDITION INFO: human, Cell viability(%), AVERAGE
TEST READOUT: viability at 0.1 µM (%)
Response body: numeric value in %, unit text excluded.

Query: In one line, give reported viability at 0.1 µM of the entry Cc1cc(C2CCCCC2)n(O)c(=O)c1 .
Result: 98.8

* * *

METHOD: in vitro
CONDITION INFO: human, Cell viability(%), individual samples
TEST READOUT: viability at 0.5 µM
State the value with its unit after it.

Query: Output measured viability at 0.5 µM for this item: Cc1cc(C2CCCCC2)n(O)c(=O)c1
Result: 98.9%

* * *

METHOD: in vitro
CONDITION INFO: human, Cell viability(%), individual samples
TEST READOUT: viability at 1 µM (%)
A number alone suffices; assume %.

Query: Let me know recorded viability at 1 µM for Cc1cc(C2CCCCC2)n(O)c(=O)c1 [Ciclopirox] , thanks.
Result: 98.6
